procedure_summary: Serum stability test
Assay type: in vitro ADME, human
experimental_conditions: human, diluted human serum (25%), supernatant after centrifugation; 8 h at 37° C.; read-out: Degradation in human serum
readout_label: metabolised at 8 h, 5 μM

Task item: Please give measured metabolised at 8 h, 5 μM of the following entry: CC(=O)[C@@H]1CCCN(C(=O)[C@@H](Cc2c[nH]cn2)NC(=O)C(N)C(C)C)C1 (stereo partly shown)
Reply: ~15%

====

We begin with a simple list: items and their reported pIC50.
measurement_target: TNFα-TNFR1 interaction (Homo sapiens, UniProt P01375)
Construct: made in house; host or cells: Escherichia coli (TNFα)
procedure_summary: ELISA inhibition of TNFα-TNFR1 interaction (immobilized biotinylated TNFα, TNFR1-HRP)
Type: binding
experimental_conditions: Table 5; peptides without Lys(FITC) label
Starred links: 1 amine or outer side, 2 acyl side, 3 side chain; linkers in the order of their positions; H or OH if unused. Positions of bridges follow the written chain, without caps; N, C: chain ends. Non-standard residues stand in square brackets, D forms with d. Residues, ends and D or L forms follow the SMILES beside them. *: point of attachment. Trimesoyl = O=C(c1cc(C(=O)[*:2])cc(C(=O)[*:3])c1)[*:1]; NH(1S,2S-2-CONH2-cPent) = NC(=O)[C@H]1CCC[C@@H]1N*; β3hV = CC(C)[C@H](N)CC(=O)O; 3Abz = Nc1cccc(C(=O)O)c1; Nle = CCCC[C@H](N)C(=O)O; Dap = NC[C@H](N)C(=O)O; βAla = NCCC(=O)O
Interpret pIC50 as the negative base-10 log of the concentration measured in mol/L.

// known answers, use as guide
INSERT INTO assay_data (compound, value) VALUES
  ('CCCC[C@@H]1NC(=O)c2cc3cc(c2)C(=O)NC[C@@H](C(=O)N[C@H](CC(N)=O)C(C)C)NC(=O)[C@H](Cc2c[nH]cn2)NC(=O)[C@@H](CCCCN)NC(=O)CNC(=O)[C@@H](Cc2c[nH]cn2)NC(=O)[C@H](Cc2c[nH]c4ccccc24)NC(=O)[C@H](CCCCNC3=O)NC(=O)[C@@H](CO)NC(=O)[C@H](Cc2ccc(O)cc2)NC1=O [Compound C1-71] ([Nle]Y[dS]KW[dH]G[dK]H[Dap][β3hV]-NH2; linker N-4-10 via Trimesoyl)', 5.62),
  ('CCCC[C@@H]1NC(=O)c2cc3cc(c2)C(=O)NC[C@@H](C(=O)N[C@H]2CCC[C@@H]2C(N)=O)NC(=O)[C@H](Cc2c[nH]cn2)NC(=O)[C@@H](CCCCN)NC(=O)CNC(=O)[C@@H](Cc2c[nH]cn2)NC(=O)[C@H](Cc2c[nH]c4ccccc24)NC(=O)[C@H](CCCCNC3=O)NC(=O)[C@@H](CO)NC(=O)[C@H](Cc2ccc(O)cc2)NC1=O [Compound C1-72] ([Nle]Y[dS]KW[dH]G[dK]H[Dap]-{NH(1S,2S-2-CONH2-cPent)}; linker N-4-10 via Trimesoyl)', 6.96),
  ('CCCC[C@@H]1NC(=O)c2cc3cc(c2)C(=O)NC[C@@H](C(=O)Nc2cccc(C(N)=O)c2)NC(=O)[C@H](Cc2c[nH]cn2)NC(=O)[C@@H](CCCCN)NC(=O)CNC(=O)[C@@H](Cc2c[nH]cn2)NC(=O)[C@H](Cc2c[nH]c4ccccc24)NC(=O)[C@H](CCCCNC3=O)NC(=O)[C@@H](CO)NC(=O)[C@H](Cc2ccc(O)cc2)NC1=O [Compound C1-73] ([Nle]Y[dS]KW[dH]G[dK]H[Dap][3Abz]-NH2; linker N-4-10 via Trimesoyl)', 5.77);

We next turn to a different compound, shown below.
Task item: Provide pIC50, recorded with TNFα-TNFR1 interaction (Homo sapiens, UniProt P01375), of CCCC[C@@H]1NC(=O)c2cc3cc(c2)C(=O)NC[C@@H](C(=O)NCCC(=O)N[C@@H](Cc2ccccc2)C(N)=O)NC(=O)[C@H](Cc2c[nH]cn2)NC(=O)[C@@H](CCCCN)NC(=O)CNC(=O)[C@@H](Cc2c[nH]cn2)NC(=O)[C@H](Cc2c[nH]c4ccccc24)NC(=O)[C@H](CCCCNC3=O)NC(=O)[C@@H](CO)NC(=O)[C@H](Cc2ccc(O)cc2)NC1=O [Compound C1-69] ([Nle]Y[dS]KW[dH]G[dK]H[Dap][βAla]F-NH2; linker N-4-10 via Trimesoyl)
Reply: 5.89
